The following variants are listed with their measured self-cleavage values.
B1: HDV Ribozyme (parent)
chain: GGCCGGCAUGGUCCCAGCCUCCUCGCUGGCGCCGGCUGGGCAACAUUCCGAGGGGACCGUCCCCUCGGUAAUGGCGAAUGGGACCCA

variants of: B1; assay: self-cleavage, relative activity (ratio to wild type); higher = more cleavage; co-transcriptional
READOUT LABEL: self-cleavage

>>> readout_number("GGCCGGCAUGGUCCCAGCCUCCUCGCUGGCGCCGGCCGCGCAACAUUCCGAGGGGACCGUCCCCUCGGUAAUGGCGAAUGGGACCCA")
0.177
>>> readout_number("GGCCGGCAUGGUCCCAGCCUCCUCGCUGGCGCCGUCUGGGCAACAUUCCGAGGGGACCGUCGCCUCGGUAAUGGCGAAUGGGACCCA")
0.259
>>> readout_number("GGACGGCAUGGUCCCAGCCUCCUCGCUGGCGCCGGCUAGGCAACAUUCCGAGGGGACCGUCCCCUCGGUAAUGGCGAAUGGGACCCA")
0.124
>>> readout_number("GGCCGGCAUGGUCCCAGCCUCCUCGCUGGCGCCGGCUGGGCAACAUUCCGAGGGGACCGUUCCCUCGGUAAUGGCGAACGGGACCCA")
0.487
>>> readout_number("GGCCGGCAUGGUCCCAGCCUCCUCGCUAGCGCCGGCUGGGCAACGUUCCGAGGGGACCGUCCCCUCGGUAAUGGCGAAUGGGACCCA")
0.0415
>>> readout_number("GGCCGGCAUGGUCCCAGCCUCCUCGCUGGCGUCGGCUGGGCAACAUUCCGAGGGGACCGUCCCCUCGGUAAUGUCGAAUGGGACCCA")
0.176
>>> readout_number("GGCCGGCAAGGUCCCAGCCUCCUCGCUGGCGCCGGCUGGGCAACAUUCCGAGGGUACCGUCCCCUCGGUAAUGGCGAAUGGGACCCA")
0.895
>>> readout_number("GGCCGGCAUGGUCCCAGCCUCCUCGCUGGCGCCGGCUGCGCAACAUUCCGAGGGGACCGUCCCCUCGGAAAUGGCGAAUGGGACCCA")
0.17
>>> readout_number("GGCCGGCAUGGUCCCAGCCUCCUCGCUGGCUCCGGCUGAGCAACAUUCCGAGGGGACCGUCCCCUCGGUAAUGGCGAAUGGGACCCA")
0.0361
>>> readout_number("GGCCGGCAUGGUCCCAGCCUCCUCGCUGGCGCCGGCUGGGUAACAUUCCGAGGGGAACGUCCCCUCGGUAAUGGCGAAUGGGACCCA")
0.986
>>> readout_number("GGCCGGCAUGGUCCCAGCCUCCUCGCUGGCGCCGGCUGGGCAACAUUCCGAGGGGACGGUCCCCUCGGUAAUGGCGAAUGAGACCCA")
0.243
>>> readout_number("GGCCGGCAUGGUGCCAGCCUCCUCGGUGGCGCCGGCUGGGCAACAUUCCGAGGGGACCGUCCCCUCGGUAAUGGCGAAUGGGACCCA")
0.0978
>>> readout_number("GGCCGGCAUGGUCGCAGCCUCCUCGCUGGCGCCGGCUGGGCAACAUUCCGAGGGGACCGUCCCCUCUGUAAUGGCGAAUGGGACCCA")
0.594
>>> readout_number("GGCCAGCAUGGUCCCAGCCUCCUCGCUGGCGCCGGCUGGGCAACAUUCCGAGGAGACCGUCCCCUCGGUAAUGGCGAAUGGGACCCA")
0.177
>>> readout_number("GGCCGGCAUGGUACCAGCCUCCUCGCUAGCGCCGGCUGGGCAACAUUCCGAGGGGACCGUCCCCUCGGUAAUGGCGAAUGGGACCCA")
0.0875
>>> readout_number("GGCCGGCAUGGUCCCGGCCUCCUCGCUGGCGCCGGCUGGGCAACAUCCCGAGGGGACCGUCCCCUCGGUAAUGGCGAAUGGGACCCA")
0.962
>>> readout_number("GGCCGGCAUGGUCCCAGCCUCCUCGCUGGCGCCGGCUGGGCAACAUUCCGAGUGGACCGUCCCCUCGUUAAUGGCGAAUGGGACCCA")
0.703
>>> readout_number("AGCCGGCAUGGUCCCAGCCUCCUCGCUGUCGCCGGCUGGGCAACAUUCCGAGGGGACCGUCCCCUCGGUAAUGGCGAAUGGGACCCA")
0.0639
>>> readout_number("GGCCGGCAUGGUCCCAGCCUCCUCGCUGGCGCCGGCUGUGCAACAUUACGAGGGGACCGUCCCCUCGGUAAUGGCGAAUGGGACCCA")
0.658
>>> readout_number("GGCCGGCAUGGUCCCAGCCUCCUCGCUGGCGCCGGCUGGGCAACAUUCCGAGGGGACCGUACCCUCGGUUAUGGCGAAUGGGACCCA")
1.17
>>> readout_number("GGCCGGCAUGGUCCCUGCCUCCUCGCUGGCGCCGGCUGGGCAACAUUCCGAGGGGACCGUCCCCUCGGUAAUGGCGAAUGGGUCCCA")
0.584
>>> readout_number("GGCCGGCAUGGUCCCAGCCUCCUCGCUGGCGCGGGCUGGGCAACAUUCCGAGGGGACCGCCCCCUCGGUAAUGGCGAAUGGGACCCA")
0.196
